# target-or-test-system: Telomerase reverse transcriptase (Homo sapiens)
# experiment: Residual activity of human TERT in H1299 cells at 1 uM after 24 hrs by SEAP reporter gene assay
This listing pairs compounds with measured residual activity.
# number only, unit % dropped from output

Check out these entries, answers already filled in.
Cc1ccc(C(=O)Nc2c(NC(=O)CN(C)C)ccc3c2C(=O)c2ccccc2C3=O)cc1 99
O=C(CCl)Nc1ccc2c(c1NC(=O)Cc1ccc(F)cc1)C(=O)c1ccccc1C2=O 93
Cc1cc(C(=O)Nc2c(NC(=O)CCl)ccc3c2C(=O)c2ccccc2C3=O)c(C)o1 81
Nc1c(NC(=O)CCl)ccc2c1C(=O)c1ccccc1C2=O 15
O=C(CCl)Nc1ccc2c(c1NC(=O)c1ccccc1)C(=O)c1ccccc1C2=O 96
O=C(CCl)Nc1ccc2c(c1NC(=O)CCl)C(=O)c1ccccc1C2=O 15

In the following, a different compound is considered.
Entry under test: Cc1cccc(C(=O)Nc2c(NC(=O)CCl)ccc3c2C(=O)c2ccccc2C3=O)c1 . Its residual activity was 116

Numbers sourced from ChEMBL document CHEMBL1926565.
